System: A2780
Assay: Microcytoxicity assay (SRB), A2780
Assay type: cell-based, human
Details: Ovarian

molecule: COc1c2c(c3oc4ccccc4c(=O)c3c1OC)CC([C@@]1(C)CO1)O2 (mixture of isomers)
reading.unit: nM
IC50: 63

* * *

System: HL60/AR (adriamycin resistant)
Experiment: Microcytoxicity assay (SRB), HL60/AR
Format: cell-based, human
Conditions: Acute promyelocytic leukemia
metric.name: IC50 (nM)

compound: COc1c2c(c3oc4ccccc4c(=O)c3c1OC)CC([C@@]1(C)CO1)O2 (mixture of isomers)
target: HL60/AR (adriamycin resistant)
metric.name: IC50
test.value: 12

* * *

System: DU 145
Experiment: Microcytoxicity assay (SRB), DU 145
Assay type: cell-based, human
Conditions: DU 145; Prostate, brain mets; read-out: IC50 Values
pIC50: −log10 of the molar value.
metric.name: pIC50

compound: COc1c2c(c3oc4ccccc4c(=O)c3c1OC)CC([C@@]1(C)CO1)O2 (mixture of isomers)
metric.name: pIC50
test.value: 6.52

Reference for the values: patent US7244760B2
